target: T1, cynomolgus PD-L1-His (Sino Biological, Cat. 90251-C08H) (cynomolgus, UniProt Q9NZQ7 19-238 (human entry)); assay: ELISA, coated cyno PD-L1-His
T1 construct: Bought protein; also called Cyno PD-L1; Cynomolgus PD-L1 ECD-His; not shown: His tag
T1 sequence (Q9NZQ7 other isoform, or with tags, fused parts or gaps C08H C08H limits assumed): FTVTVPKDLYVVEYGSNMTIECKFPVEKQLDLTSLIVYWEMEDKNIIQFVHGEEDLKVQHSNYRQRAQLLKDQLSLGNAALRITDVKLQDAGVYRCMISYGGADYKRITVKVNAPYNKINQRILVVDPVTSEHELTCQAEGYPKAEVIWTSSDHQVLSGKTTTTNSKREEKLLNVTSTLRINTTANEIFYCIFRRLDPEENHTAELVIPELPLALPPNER
Assign EC50 to each entry below.
Numbers only, in nM.

binder="57B10 (antibody, human IgG1, V domains shown) VH: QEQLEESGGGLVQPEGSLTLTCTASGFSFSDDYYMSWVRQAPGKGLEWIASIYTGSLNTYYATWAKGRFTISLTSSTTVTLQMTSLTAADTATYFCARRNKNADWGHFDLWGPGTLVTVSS VL: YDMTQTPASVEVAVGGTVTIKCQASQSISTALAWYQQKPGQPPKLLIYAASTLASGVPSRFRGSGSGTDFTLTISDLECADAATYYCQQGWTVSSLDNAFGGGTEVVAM" quantity=EC50 measuredresult=0.0071
binder="74F4 (antibody, human IgG1, V domains shown) VH: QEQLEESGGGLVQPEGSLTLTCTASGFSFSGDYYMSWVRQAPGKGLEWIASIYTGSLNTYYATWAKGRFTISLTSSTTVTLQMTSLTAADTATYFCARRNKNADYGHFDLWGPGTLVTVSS VL: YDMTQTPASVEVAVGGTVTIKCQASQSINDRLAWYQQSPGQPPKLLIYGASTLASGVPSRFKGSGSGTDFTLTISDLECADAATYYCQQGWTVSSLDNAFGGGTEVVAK" quantity=EC50 measuredresult=0.0125

Here's the next entry for you.
Sample 74A9 (antibody, human IgG1, V domains shown) VH: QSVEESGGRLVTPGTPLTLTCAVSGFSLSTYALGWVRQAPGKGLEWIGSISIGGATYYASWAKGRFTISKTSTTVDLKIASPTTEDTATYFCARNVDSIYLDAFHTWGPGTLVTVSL VL: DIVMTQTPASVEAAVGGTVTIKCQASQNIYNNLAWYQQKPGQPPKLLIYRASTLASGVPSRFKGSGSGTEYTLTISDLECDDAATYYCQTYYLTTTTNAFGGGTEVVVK ; EC50 observed: 0.0198

From: patent US20250171542A1
